The measured values listed here are drawn from patent US4652646A.

# Tested on: passive cutaneous anaphylaxis (PCA) reaction
# assay.text: Passive cutaneous anaphylaxis (PCA) test
# Format: in vivo, Sprague-Dowley male rats
# test.parameters: 0.5 h; rat PCA; 20 mg/kg in 0.5% CMC, oral, 30 minutes before antigen challenge
# Protocol: 1 mg of egg albumin dissolved in 0.2 ml of saline was intramuscularly administered to each of Sprague-Dawley male rats weighing 300 to 350 g (Charles River Japan Inc.), and then 1 ml of a suspension of sterilized Bordetella pertussis (2×10^10 cells) in saline was administered intraperitoneally to the rats. […] The inhibitory activity on the PCA reaction in the treated group was calculated by the following formula: [formula] wherein: a represents a mean value of blue spot area in the control group. […]
Could you label it true if measured inhibition in vivo at 20 mg/kg is 40% or higher, and false otherwise?

Please review the following examples before continuing.
CC(C)(C)c1ccc(-c2cn3c(=O)c4[nH]nnc4nc3s2)cc1; false
O=c1c2[nH]nnc2nc2sc(-c3cccc(F)c3)nn12; false
COc1cccc(-c2nn3c(=O)c4[nH]nnc4nc3s2)c1OC; false
O=c1c2[nH]nnc2nc2sc(-c3ccc(Cl)s3)nn12; false
Cc1ccc(-c2nn3c(=O)c4[nH]nnc4nc3s2)cc1 [Example 80, monohydrate]; false
COc1ccc(-c2cn3c(=O)c4[nH]nnc4nc3s2)cc1Cl; true
O=c1c2[nH]nnc2nc2sc(CCc3ccccc3)nn12; true
O=c1c2[nH]nnc2nc2sc(-c3ccc4c(c3)CCCC4)nn12; true

Let us examine a further case.
Q: Could you verify whether the entry "CC(C)(C)c1ccc(-c2nn3c(=O)c4[nH]nnc4nc3s2)s1" shows inhibition in vivo at 20 mg/kg of no less than 40%?
Ans: false

###

# System: passive cutaneous anaphylaxis (PCA) reaction
# assay.text: Passive cutaneous anaphylaxis (PCA) test
# Type: in vivo, Sprague-Dowley male rats
# test.parameters: 0.5 h; rat PCA; 20 mg/kg in 0.5% CMC, oral, 30 minutes before antigen challenge
measurement.type: inhibition in vivo at 20 mg/kg (%)
One number for each entry, in %.

Below, each entry is followed by its recorded inhibition in vivo at 20 mg/kg result.
CC(C)(C)c1cc(-c2nn3c(=O)c4[nH]nnc4nc3s2)cs1; 39
O=c1c2[nH]nnc2nc2sc(-c3cc4c(s3)CCCC4)nn12; 45
O=c1c2[nH]nnc2nc2sc(-c3cccs3)cn12; 32

Q: Please report inhibition in vivo at 20 mg/kg for the following molecule: O=c1c2[nH]nnc2nc2sc(C3COc4ccccc4C3)nn12 (stereo not shown)
Ans: 38

###

# Tested on: passive cutaneous anaphylaxis (PCA) reaction
# assay.text: Passive cutaneous anaphylaxis (PCA) test
# Format: in vivo, Sprague-Dowley male rats
# test.parameters: 0.5 h; rat PCA; 20 mg/kg in 0.5% CMC, oral, 30 minutes before antigen challenge
Could you label it True if measured inhibition in vivo at 20 mg/kg is 50% or higher, and False otherwise?

Q: Could you verify whether the entry "O=c1c2[nH]nnc2nc2sc(-c3ccc(C4CCCCC4)cc3)cn12" shows inhibition in vivo at 20 mg/kg of no less than 50%?
Ans: False

Q: Could you verify whether the entry "O=c1c2[nH]nnc2nc2sc(Cc3ccc(F)cc3)nn12" shows inhibition in vivo at 20 mg/kg of no less than 50%?
Ans: True

Q: Could you verify whether the entry "CC(C)(C)c1ccc(-c2nn3c(=O)c4[nH]nnc4nc3s2)cc1" shows inhibition in vivo at 20 mg/kg of no less than 50%?
Ans: False

Q: Could you verify whether the entry "CCc1sc(-c2nn3c(=O)c4[nH]nnc4nc3s2)cc1C" shows inhibition in vivo at 20 mg/kg of no less than 50%?
Ans: False
